- Test system: Mycobacterium tuberculosis
- experiment.notes: AntiMycobacterium tuberculosis activity 2-week Alamar Blue 7H9/ADC/Tw MIC (uM)
- Assay type: functional
- assay.conditions: 336 h
Record form. Attribute: log10 of MIC. Fill in for each entry.
// units: µM (pre-log); metric: MIC; scale: log10

- compound: "CCCc1ccc(S(=O)(=O)Nc2ccc(CN3CCN(CC4CC4)CC3)cc2)cc1"
  property.name: "log10 of MIC"
  endpoint.value: 1.28
- compound: "O=C(CCC1CCCCC1)Nc1cccc(-c2nnc(-c3ccco3)o2)c1"
  property.name: "log10 of MIC"
  endpoint.value: 0.36
- compound: "CC(=O)NCC1CN(c2ccc(-c3ccc(CO)cc3)c(F)c2)C(=O)O1 (stereo not given)"
  property.name: "log10 of MIC"
  endpoint.value: -0.41

Batch of 4 compounds: report log10 of MIC for each.
1. Nc1nc2cc(-c3cncc(Oc4ccc(F)cc4)c3)ccc2[nH]1
2. CC(=O)NCC1CN(c2ccc(-c3ccc(CNCc4cn[nH]n4)cc3)c(F)c2)C(=O)O1 (stereo not given)
3. Cc1ccccc1CN1CCC(O)(c2ccc(Cl)c(C(F)(F)F)c2)CC1
4. Cn1c(=O)c2c(S(C)(=O)=O)snc2n(C)c1=O

Response:
[1.28, -0.41, -0.41, 1.40]

Give log10 of MIC for each listed item.
1. COc1ccc(C2(C(=O)Nc3ccc(Br)cc3)CCCC2)cc1
2. CCc1nc2ccccc2n1CC(O)COc1cc(C)ccc1Cl (stereo not given)

Response:
[1.10, 1.57]

Each compound below has a reported value. Please supply its log10 of MIC.
1. NC(CC(=O)c1ccc(Cl)cc1Cl)C(Cl)(Cl)Cl (stereo not given)
2. O=C(Nc1nnc(-c2ccc(Cl)cc2)o1)c1cccc(C(F)(F)F)c1
3. CCOc1ccc(-c2nc(CNCCc3ccc(F)cc3)cs2)cc1

Response:
1.10
1.40
1.40

Below is a list of compounds. For each, state its recorded log10 of MIC.
1. O=C(Nc1nc(-c2ccccn2)cs1)c1cncn1-c1ccccc1
2. CC1=NN(c2nc3ccccc3s2)C(=O)C1Cc1cccc2ccccc12 (stereo not given)
3. O=C1O[C@@H](COc2ccon2)CN1c1cc(F)c(C2=CCN(Cc3ccccc3)CC2)c(F)c1
4. O=C(NC1=NCCS1)c1sc2cc(F)ccc2c1Cl

Response:
[1.28, 1.40, -0.41, 0.97]

Give log10 of MIC for each listed item.
1. Nc1c2c(nc3sc4c(c13)CCCC4)CCCC2
2. COc1cc(CN2CCC3(C=Cc4ccccc43)CC2)cc2c1OCO2

Response:
1. 1.10
2. -0.11

Provide the reported log10 of MIC of each entry below, same order.
1. O=C1O[C@@H](CO)CN1c1cc(F)c(C2=CCN(Cc3ccccc3)CC2)c(F)c1
2. CN1CCN(c2cc(-c3ccc(F)cc3)nc(-c3ccncc3)n2)CC1
3. Cc1ccc2nc(Cl)c(CNCc3cccs3)cc2c1
4. N#Cc1ccc(-c2ccc(OCC(N)=O)cc2)cc1
5. COc1cccc(-n2nnnc2S(=O)(=O)Cc2ccccc2)c1
6. CCCCOC(=O)Nc1cc2nc(C3CCCCC3)[nH]c2cc1N1CCCC1
7. N#Cc1nc(-c2ccccc2)oc1S(=O)(=O)c1ccc(Cl)cc1

Response:
[0.50, 1.10, 1.70, 1.70, 1.40, -0.70, 0.80]

For each entry beneath this line, provide reported log10 of MIC.
1. CCOC(=O)NC(=O)c1ccsc1NC(=O)c1nc2ccccc2s1
2. O=[N+]([O-])c1cn2c(n1)OC[C@@H](OCc1ccc(OC(F)(F)F)cc1)C2 [PRETOMANID]
3. O=C(Nc1cccnc1)c1c(O)c2cccc3c2n(c1=O)CC3
4. Cc1cc(OCC(=O)NCc2ccccc2)c2cc(Br)ccc2n1
5. CCCCS(=O)(=O)Nc1ccc2cnn(C)c2c1
6. c1coc(CNc2nc(N3CCCCC3)nc3ccccc23)c1
7. O=C(C1CCN(c2cc(-n3cccc3)ncn2)CC1)N1CCc2ccccc2C1
8. Nc1ncnc2c1ncn2[C@@H]1O[C@H](COS(=O)(=O)NC(=O)c2ccccc2O)[C@@H](O)[C@H]1O

Response:
1: -0.82; 2: -0.41; 3: 1.40; 4: 0.67; 5: -0.22; 6: 1.40; 7: 0.19; 8: 0.97

Please go through the list and note log10 of MIC for each compound.
1. c1ccc(-c2nc(NC3CCCCC3)cc(C3CC3)n2)nc1
2. Cc1cc(C)c2cc(C(=O)NC3CCCCCCC3)[nH]c2c1

Response:
1: 1.57; 2: -1.70

// provenance: ChEMBL document CHEMBL3832761
